experimental context: in ethyl acetate, 308.15 K
measured parameter: solubility (mole fraction)
// print number alone

Tell me solubility (mole fraction) reported for `COC(=O)c1cc(O)c(O)c(O)c1` 0.0324

* * *

experimental context: in ethanol, 308.15 K
measured parameter: solubility (mole fraction)
// print number alone

Tell me solubility (mole fraction) reported for `COC(=O)c1cc(O)c(O)c(O)c1` 0.0881

* * *

experimental context: in methanol, 293.15 K
measured parameter: solubility (mole fraction)
// print number alone

Tell me solubility (mole fraction) reported for `COC(=O)c1cc(O)c(O)c(O)c1` 0.0812

* * *

experimental context: in n-butanol, 328.15 K
measured parameter: solubility (mole fraction)
// print number alone

Tell me solubility (mole fraction) reported for `COC(=O)c1cc(O)c(O)c(O)c1` 0.0766
